All figures here come from paper PMC5540273.

# System: CDC2L2;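 also: KINOMEscan kinase panel screen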
# experimental_conditions: concentration: 1 μM, replicates: in singlicate; n = 1
Could you please mark 1 for values of %Inh below 10% and -1 for values at or above it?

Record Fc1ccc(Nc2nccc(-c3c(-c4ccc(Cl)cc4)nn4ncccc34)n2)cc1F : is its %Inh strictly below 10%?
-1

Record Cc1ccc(NC(=O)c2cccc(C#N)c2)cc1-c1ccc(C(=O)Nc2ccncc2)cc1 : is its %Inh strictly below 10%?
-1

Record O=C(NCCCN1CCCC1=O)c1cnc(NCc2cc(Cl)ccc2Cl)nc1NC1CCNCC1 : is its %Inh strictly below 10%?
1

Record CS(=O)(=O)CCNCc1nc(-c2ccc3ncnc(Nc4ccc(OCc5cccc(F)c5)c(Cl)c4)c3c2)cs1.Cl : is its %Inh strictly below 10%?
-1

Record Nc1nc(-c2ccc3c(N)n[nH]c3c2)cc(N2CCC[C@@H](C(=O)Nc3ccccc3)C2)n1.O=C(O)C(F)(F)F.O=C(O)C(F)(F)F : is its %Inh strictly below 10%?
-1

Record O=C(Nc1ccccc1F)NC1CCN(c2ccnc(Nc3ccc(F)cc3)n2)C1 (centres unmarked) : is its %Inh strictly below 10%?
1

Record CSc1nn2c(=O)cc(N3CCOCC3)nc2n1Cc1cccc(Cl)c1Cl : is its %Inh strictly below 10%?
1

Record Nc1nc(-c2ccc3c(N)n[nH]c3c2)cc(N2CCCCC2)n1 : is its %Inh strictly below 10%?
1
